growth overview
# System: SR leukemia
# measurement protocol: NCI-60 one-dose screen, 48 h (100 = growth as untreated, 0 = no growth, -100 = all killed)
# condition info: 10 µM unless noted
The panel holds about 83,000 compounds, 20% with a hit somewhere; the sample as a whole holds those more often.
The reply should be a number in %, with the unit left off.

compound: O=C(Nn1c2c(sc1=NCc1ccccc1)C(=O)c1ccccc1C2=O)c1cc2ccc1CCc1ccc(cc1)CC2
growth [%]: 48.3
--
compound: CC(C)CCNC(=O)Cn1cccc(NC(=O)OCc2ccccc2)c1=O
growth [%]: 107
--
compound: CC1Cc2c(Cl)ncnc2N(C)c2ccc(F)cc21 (stereo unspecified)
growth [%]: 95.3
--
compound: CCOC(=O)c1c2c(n3ccc(C)cc13)C(=O)c1ccccc1C2=O
growth [%]: 84.8
--
compound: COc1ccc2c(c1)c(-c1noc(C(=O)c3cn(C)c4ccc(Br)cc34)n1)cn2C
growth [%]: 80.5

Exercise: Give the value of growth reported for the following: COc1cc2c(c(OC)c1OC)CCC(c1cccc(C(=O)Nc3cccc(Br)c3)c1)O2 (stereo unspecified)
Solution: 35.6

Exercise: Retrieve growth measured for CC(=O)n1nc(C(=O)OC(C)C)c2cc(C)c(C)cc21 and print it.
Solution: 84.6

Exercise: Provide only the value of recorded growth for S=C1CCSC(=S)N1CCCN1C(=S)CCSC1=S
Solution: 21

Exercise: Output measured growth for this item: Fc1cccc(CNc2c3ccccc3nc3ccccc23)c1F
Solution: 38.2

Exercise: // Input: N#Cc1cccc(F)c1 . Output its growth only.
Solution: 98.1

Exercise: Determine its reported growth: COc1ccc(OC)c(C(=O)/C=C/c2cc3c(c(OC)c2OC)OCO3)c1
Solution: 17.8
